experiment: Cytotoxicity against human HepG2(2.2.15) cells; assay type: cell-based
# condition met = IC50 below 300 µM (exclusive); condition not met = IC50 at/above 300 µM

O=C1CCCC2=C1C(c1ccc(F)cc1)N=C(c1cccnc1)N2 (stereo unspecified)    condition met
O=C1CCCC2=C1C(c1ccc(F)cc1Cl)N=C(c1ccco1)N2 (stereo unspecified)    condition not met
O=C1CCCC2=C1C(c1ccc(F)cc1Cl)N=C(c1ccccn1)N2 (stereo unspecified)    condition not met
O=C1CCCC2=C1C(c1ccccc1Cl)N=C(c1ccccn1)N2 (stereo unspecified)    condition not met
COC(=O)C1=C(C)NC(c2ncc(F)cc2F)=N[C@H]1c1ccc(F)cc1Cl    condition not met
O=C1CCCC2=C1C(c1ccccc1)N=C(c1cccnc1)N2 (stereo unspecified)    condition not met
CC1(C)CC(=O)C2=C(C1)NC(c1ncc(F)cc1F)=NC2c1ccc(F)cc1Cl (stereo unspecified)    condition met
CC1(C)CC(=O)C2=C(C1)NC(c1cccnc1)=NC2c1ccc(F)cc1Cl (stereo unspecified)    condition not met

Field: below-cutoff. Rule: recorded IC50 strictly less than 300 µM. Subject: O=C1CCCC2=C1C(c1ccccc1Cl)N=C(c1cnccn1)N2 (stereo unspecified)
condition not met

Criterion: IC50 strictly below 300 µM. Is it met by CC1(C)CC(=O)C2=C(C1)NC(c1nccs1)=NC2c1ccc(F)cc1Cl (stereo unspecified) ?
condition met

Is IC50 of CC1(C)CC(=O)C2=C(C1)NC(c1cnccn1)=NC2c1ccc(F)cc1Cl (stereo unspecified) strictly below 300 µM?
condition not met

Please let me know if CC1(C)CC(=O)C2=C(C1)NC(c1cccnc1)=NC2c1ccc(F)cc1 (stereo unspecified) shows IC50 below 300 µM.
condition met

Quick check: IC50 of CC1(C)CC(=O)C2=C(C1)NC(c1cccnc1)=NC2c1ccccc1 (stereo unspecified) under 300 µM?
condition met

Does CC1(C)CC(=O)C2=C(C1)NC(c1ncccc1F)=NC2c1ccc(F)cc1Cl (stereo unspecified) have IC50 strictly under 300 µM?
condition not met

Does the reported IC50 of the following compound sit strictly below 300 µM? CC1(C)CC(=O)C2=C(C1)NC(c1ccncc1)=NC2c1ccc(F)cc1Cl (stereo unspecified)
condition met

Here's an entry: CC1(C)CC(=O)C2=C(C1)NC(c1cccnc1)=NC2c1ccccc1Cl (stereo unspecified) . Is its IC50 below 300 µM?
condition met
